Values were extracted from patent US11660293B2.

- study-system: human Orexin type 1 receptors (Homo sapiens (Human))
- Sequence (O43613 whole entry): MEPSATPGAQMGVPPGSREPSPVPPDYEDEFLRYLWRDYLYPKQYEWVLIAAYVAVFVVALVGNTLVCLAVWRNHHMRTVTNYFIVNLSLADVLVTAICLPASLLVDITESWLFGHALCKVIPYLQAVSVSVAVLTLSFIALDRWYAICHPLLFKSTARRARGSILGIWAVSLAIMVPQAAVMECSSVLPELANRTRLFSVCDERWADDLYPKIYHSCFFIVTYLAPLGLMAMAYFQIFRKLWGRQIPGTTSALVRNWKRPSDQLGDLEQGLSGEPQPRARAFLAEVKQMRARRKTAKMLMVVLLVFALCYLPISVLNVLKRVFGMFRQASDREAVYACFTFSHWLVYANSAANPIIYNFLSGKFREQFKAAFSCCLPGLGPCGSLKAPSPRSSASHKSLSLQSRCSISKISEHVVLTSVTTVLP
- measurement-protocol: Scintillation Proximity Assay (SPA) binding assay, [3H]SB-674042 displacement, CHO-hOX1 membranes
- condition-info: Table 2, [3H]SB-674042 2 nM
// OX1 pKi (SPA binding) lookup, one value per entry
observed-property: OX1 pKi (SPA binding)

{"molecule": "C[C@@H]1C2CC(C2)N(C(=O)c2cc(F)ccc2-n2nccn2)C1CNc1cnc2cc(F)ccc2n1 (stereo in doubt)", "reported-result": 8.04}
{"molecule": "C[C@@H]1C2CC(C2)N(C(=O)c2cc(Cl)ccc2-n2nccn2)C1CNc1ncc(C(F)(F)F)cn1 (stereo partly shown) [Example 239]", "reported-result": 8.04}
{"molecule": "Cc1ccc(-n2nccn2)c(C(=O)N2C3CC(C3)[C@@H](C)C2CNc2nc3ccccc3s2)n1 (stereo partly shown) [Example 178]", "reported-result": 8.52}
{"molecule": "Cc1ccc(-n2nccn2)c(C(=O)N2C3CC(C3)[C@@H](C)C2CNc2nc3cccnc3s2)n1 (single isomer, unassigned) [Example 186]", "reported-result": 8.42}
{"molecule": "Cc1nc(C(=O)N2C3CC(C3)[C@H](C)C2COc2ccc(F)cc2)c(-c2ccccn2)s1 (single isomer, unassigned) [Example 124]", "reported-result": 8.43}
{"molecule": "Cc1ccc(-n2nccn2)c(C(=O)N2C3CC(C3)[C@H](C)C2CNc2nc3ccc(F)cc3s2)n1 (stereo partly shown)", "reported-result": 7.57}
{"molecule": "Cc1ccc(-n2nccn2)c(C(=O)N2C3CC(C3)[C@@H](C)C2CNc2nc3ccccc3o2)n1 (stereo in doubt) [Example 225]", "reported-result": 8.32}
{"molecule": "Cc1ccc(-c2ncccn2)c(C(=O)N2C3CC(C3)[C@@H](C)C2CNc2cnc(C(F)(F)F)cn2)n1 (single isomer, unassigned) [Example 249]", "reported-result": 5.12}
{"molecule": "Cc1ccc(-n2nccn2)c(C(=O)N2C3CC(C3)[C@@H](C)C2CNc2ncc(C(F)(F)F)cn2)n1 (single isomer, unassigned) [Example 194]", "reported-result": 7.51}
{"molecule": "Cc1ccc(-c2ncccn2)c(C(=O)N2C3CC(C3)[C@@H](C)C2CNc2cnc(C(F)(F)F)cn2)n1 (single isomer, unassigned) [Example 250]", "reported-result": 7.9}
{"molecule": "Cc1ccc(-n2nccn2)c(C(=O)N2C3CC(C3)[C@@H](C)C2CNc2ccc3ccccc3n2)n1 (mixture of isomers)", "reported-result": 7.32}
{"molecule": "C[C@@H]1C2CC(C2)N(C(=O)c2cc(Cl)ccc2-n2nccn2)C1CNc1nc2ccc(F)cc2s1 (single isomer, unassigned) [Example 173]", "reported-result": 9.36}
{"molecule": "Cc1ccc(-n2nccn2)c(C(=O)N2C3CC(C3)[C@@H](C)C2CNc2cnc3ccccc3n2)n1 (single isomer, unassigned) [Example 159]", "reported-result": 6.84}
{"molecule": "Cc1ccc(-n2nccn2)c(C(=O)N2C3CC(C3)[C@@H](C)C2CNc2nc3ccc(F)cc3o2)n1 (single isomer, unassigned) [Example 219]", "reported-result": 8.71}
{"molecule": "C[C@@H]1C2CC(C2)N(C(=O)c2nn(C)cc2-c2ccccc2)C1CNc1ccc(C(F)(F)F)cn1 (mixture of isomers) [Example 210]", "reported-result": 8.69}
{"molecule": "Cc1ccc(-n2nccn2)c(C(=O)N2C3CC(C3)[C@@H](C)C2CNc2nc3cc(F)ccc3s2)n1 (mixture of isomers)", "reported-result": 7.84}
{"molecule": "C[C@@H]1C2CC(C2)N(C(=O)c2cc(Cl)ccc2-n2nccn2)C1CNc1nc2ccc(F)cc2s1 (mixture of isomers) [Example 171]", "reported-result": 8.9}
{"molecule": "C[C@@H]1C2CC(C2)N(C(=O)c2cc(F)ccc2-n2nccn2)C1CNc1nc2ccc(F)cc2s1 (single isomer, unassigned) [Example 170]", "reported-result": 8.86}
{"molecule": "Cc1ccc(-n2nccn2)c(C(=O)N2C3CC(C3)[C@@H](C)C2CNc2cnc3ccccc3n2)n1 (single isomer, unassigned) [Example 160]", "reported-result": 8.68}
